Target: Luciferin 4-monooxygenase (Photinus pyralis) (UniProt P08659)
Sequence (P08659 whole entry, looked up): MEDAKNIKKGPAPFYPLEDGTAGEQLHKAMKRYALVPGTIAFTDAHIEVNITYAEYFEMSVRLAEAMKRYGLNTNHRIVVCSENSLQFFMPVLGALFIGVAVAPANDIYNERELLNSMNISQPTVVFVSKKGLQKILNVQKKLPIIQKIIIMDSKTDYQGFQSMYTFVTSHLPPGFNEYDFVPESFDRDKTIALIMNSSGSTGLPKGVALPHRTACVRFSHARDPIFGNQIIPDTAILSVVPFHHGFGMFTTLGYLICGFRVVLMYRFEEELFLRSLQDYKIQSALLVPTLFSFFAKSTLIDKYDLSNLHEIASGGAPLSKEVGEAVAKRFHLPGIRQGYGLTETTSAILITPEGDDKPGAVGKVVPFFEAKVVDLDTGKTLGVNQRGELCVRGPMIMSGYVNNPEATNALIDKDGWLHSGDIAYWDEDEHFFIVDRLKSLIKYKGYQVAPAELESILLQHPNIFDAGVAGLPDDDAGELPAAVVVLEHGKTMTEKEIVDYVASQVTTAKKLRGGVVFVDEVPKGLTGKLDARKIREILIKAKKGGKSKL
Test: qHTS Assay for Inhibitors of Firefly Luciferase; also: nearly all actives have a fitted effect of over 40% in size
Details: purified firefly luciferase, luminescence, 8 min; series mostly up to 57.1 µM
Screen size: about 72,000 compounds; about 1,600 (2.2%) were called active. Calls follow the shape of the dose curve; as a rule, active = well fitted inhibition curve with a large enough effect; inconclusive = small, poorly fitted or top-dose-only effect; inactive = flat fitted curve, though single readings scatter. This excerpt belongs to a sample that is enriched for actives.
A correct response names exactly one class from class 1 for active, class 0 for inactive

Reference set (10 entries):
I would be grateful if you could indicate the recorded call for CCOC(=O)c1cc(NC(=O)c2cccnc2)cc(C(=O)OCC)c1 .
class 0

I would be grateful if you could indicate the recorded call for O=C1C(c2ccccn2)=[N+]([O-])c2ccccc21 .
class 0

Outcome? Brc1cccc(-c2nnc3n2CCC3)c1
class 0

For this molecule, state the assay outcome: COc1ccc(CCn2c(NCCCN3CCOCC3)nc3c2c(=O)[nH]c(=O)n3C)cc1
class 0

In this assay, the call recorded for COC(=O)c1cn(C)c2ccc(S(=O)(=O)N3CC(C)CC(C)C3)cc2c1=O (stereo not drawn) was what?
class 0

What classification did CCOC(=O)CSc1nnc(-c2ccncc2)o1 end up with in this test?
class 0

Please share the test call associated with CCCOC(=O)C1=C(C)NC2=C(C(=O)C(C(=O)OC)C(C)C2)C1c1ccc(N(C)C)cc1 (stereo not drawn) .
class 0

# outcome recorded in this test, key = Cc1cc2nc(-c3ccc(NC(=O)c4cccnc4)cc3)oc2cc1C
class 1

So what was the verdict on Cc1ccc(OCC(=O)Nc2ccc(-c3nc4ncccc4o3)cc2)cc1 in this test?
class 0

Called result for C=CCN(CC=C)C(=O)CN1C(=O)c2ccccc2C1=O
class 0

New cases:
Hello, I am checking results. What call was entered for CCCC(=O)Nc1ccc2c(c1)nc1n2CCSC1 ?
class 0

I'd appreciate the recorded outcome for CCc1ccccc1NC1c2ccccc2C(=O)N1c1cccnc1 (stereo not drawn) from this test.
class 0

###

Target: Luciferin 4-monooxygenase (Photinus pyralis) (UniProt P08659)
Experiment: qHTS Assay for Inhibitors of Firefly Luciferase; also: nearly all actives have a fitted effect of over 40% in size
Settings: purified firefly luciferase, luminescence, 8 min; series mostly up to 57.1 µM
The campaign covered roughly 72,000 compounds. About 1,600 (2.2%) were called active. Calls follow the shape of the dose curve; as a rule, active = well fitted inhibition curve with a large enough effect; inconclusive = small, poorly fitted or top-dose-only effect; inactive = flat fitted curve, though single readings scatter. What follows is part of a selection rich in actives, with near analogues and random picks from the rest.
Give one outcome, nothing more. List: 1 (active), -1 (inactive)

Solved cases below.
Lab log entry: CCNC(=O)CCc1nc(-c2ccc(C(C)(C)C)cc2)no1 — outcome as called in the assay?
1

Record request — test call for CC(C)(C)c1ccc(C(=O)CSc2ncn[nH]2)cc1
1

// outcome(item) with item = c1ccc(-n2ncc(-c3nn[nH]n3)n2)cc1
-1

# lookup: test call for COc1ccc2[nH]c3ccc(OC)cc3c2c1
1

So what was the verdict on CCN(CC)S(=O)(=O)c1cc(C(=O)Nc2ccccn2)ccc1C in this test?
1

More entries:
Query: recorded result category for COC(=O)c1[nH]c2ccccc2c1NS(=O)(=O)c1ccc(OC)cc1OC in this test
-1

What was the test verdict on CCc1ccc(-c2nnn(Cc3nn[nH]n3)n2)cc1 ?
-1

###

Target: Luciferin 4-monooxygenase (Photinus pyralis) (UniProt P08659)
Assay: qHTS Assay for Inhibitors of Firefly Luciferase; also: nearly all actives have a fitted effect of over 40% in size; as to activity change, negative = inhibition: % is scaled to controls: 0 for no effect and ±100 for the full control effect
Settings: purified firefly luciferase, luminescence, 8 min; series mostly up to 57.1 µM
Screen size: about 72,000 compounds; about 1,600 (2.2%) were called active. The sample as a whole holds a higher share of actives than the screen did.
Below, each entry is listed alongside its reported activity change, negative = inhibition.

# count of solved cases: 5
Lab note: measured activity change, negative = inhibition of CN1CCC2(CC1)CCN(S(=O)(=O)c1ccccc1)CC2 was 1.62% [at 11.4 µM] (inactive)

Data point: Cc1cc(N2CCCCC2)nc2ccc(Cc3ccc4nc(N5CCCCC5)cc(C)c4c3)cc12 ; activity change, negative = inhibition = 0.114% [at 11.4 µM] (inactive)

GET /value?item= Cn1c(=O)c(-c2ccccc2)nc2cnc(N3CCNCC3)nc21 &field=activity change, negative = inhibition returns -0.109% [at 11.4 µM] (inactive)

Looking up COc1ccccc1CNc1ccnc(-c2c(C)noc2C)n1 , I found its activity change, negative = inhibition recorded as -0.167% [at 2.29 µM] (inactive)

Lookup result for CNc1nc(-c2ccccc2OC)nc2ccccc12 ; measured activity change, negative = inhibition: -0.211% [at 2.29 µM] (inactive)

Field: next compound
For this compound ( O=C(c1ccco1)N1CCC[C@@]2(CCN(Cc3nccs3)C2)C1 ), measured activity change, negative = inhibition is 2.02% [at 11.4 µM] (inactive)

###

Biological target: Luciferin 4-monooxygenase (Photinus pyralis) (UniProt P08659)
Test: qHTS Assay for Inhibitors of Firefly Luciferase; also: nearly all actives have a fitted effect of over 40% in size
Settings: purified firefly luciferase, luminescence, 8 min; series mostly up to 57.1 µM
The whole screen tested about 72,000 compounds, of which about 1,600 (2.2%) were called active. Calls come from the whole dose curve; as a rule, active = well fitted inhibition curve with a large enough effect; inconclusive = small, poorly fitted or top-dose-only effect; inactive = flat fitted curve, though single readings scatter. The full list was thinned out, with actives kept by preference.
The reply should name one outcome from y = active, n = inactive

Given CN=C1SC(C(=O)O)CC(=O)N1C (stereo not given) , state the outcome it received in this test.
n

Others:
Each compound tested received a call. Report the one for O=C(Cn1[nH]c(=O)c2ccccc2c1=O)Nc1cccc(-c2nnc3n2CCCCC3)c1 .
n

What classification did O=C(CCCOc1ccccc1)Nc1cccc(C(=O)O)c1 end up with in this test?
n

Status in this test for CCn1c(=N)n(CC(=O)c2cccc(OC)c2)c2ccccc21 ?
n

###

Target: Luciferin 4-monooxygenase (Photinus pyralis)
Assay: qHTS Assay for Inhibitors of Firefly Luciferase; also: nearly all actives have a fitted effect of over 40% in size
Settings: purified firefly luciferase, luminescence, 8 min; series mostly up to 57.1 µM
Description: To aid in the interpretation of high-throughput screening (HTS) results derived from luciferase-based assays, we used quantitative HTS, an approach that defines the concentration-response behavior of each library sample, to profile the ATP-dependent luciferase from Photinus pyralis against more than 72 000 samples. […] Quantitative high-throughput screening: a titration-based approach that efficiently identifies biological activities in large chemical libraries. […]
The campaign covered roughly 72,000 compounds. About 1,600 (2.2%) were called active. The call rests on the fitted dose curve; in most records, active means well fitted inhibition curve with a large enough effect; inconclusive means small, poorly fitted or top-dose-only effect; inactive means flat fitted curve, though single readings scatter. Only a selection was taken, and actives are over-represented in it overall.
Valid outcomes are listed here; reply with one: active, inactive

Look up the recorded call for C[N+](C)(C)CCCCCNCC12CC3CC(CC(C3)C1)C2 in this test.
inactive

Others:
Returns: the outcome recorded for N#CC1=C(N)Oc2cc(O)ccc2C1C1CCCCC1 (stereo unspecified) in this assay.
inactive

For COC(=O)c1sccc1NC(=O)c1csc2c1CCCC2 , what call appears in the results of this test?
inactive

# outcome recorded in this test, key = O=C(C1CCN(S(=O)(=O)Cc2ccccc2)CC1)N1CCCc2ccccc21
inactive

What did this assay record as the result for CCCCC[C@H](O)CCCC(=O)O ?
inactive

Could you kindly confirm the outcome this assay logged for CCOC(=O)Cc1csc(NC(=O)Nc2ccccc2)n1 ?
active

For c1ccc(-n2ncc3c(N4CCCC4)ncnc32)cc1 , what call appears in the results of this test?
active

Called result for CC(c1nnc(SCC(=O)Nc2sccc2C#N)n1-c1ccc(Cl)cc1)N(C)C (stereo unspecified)
inactive

Per the assay record, what outcome was assigned to COc1ccc(C(=O)Cn2nnc(-c3ccc(N4CCOCC4)cc3)n2)cc1OC ?
active

Test call for this compound, please: Cc1ccc(-n2ncc3c(N4CCN(c5ccc(F)cc5)CC4)ncnc32)c(C)c1
inactive

# outcome recorded in this test, key = CCOC(=O)Cc1csc(NC(=O)C(C)(C)C)n1
inactive

Write down the call the test reported for this compound. Item: N#Cc1c2c(c(-c3ccccc3)[nH]c1=O)CCCC2
inactive

###

Target: Luciferin 4-monooxygenase (Photinus pyralis) (UniProt P08659)
Assay: qHTS Assay for Inhibitors of Firefly Luciferase; also: nearly all actives have a fitted effect of over 40% in size
Settings: purified firefly luciferase, luminescence, 8 min; series mostly up to 57.1 µM
Among all 72,000 compounds or so, about 1,600 (2.2%) were called active. The call rests on the fitted dose curve; in most records, active means well fitted inhibition curve with a large enough effect; inconclusive means small, poorly fitted or top-dose-only effect; inactive means flat fitted curve, though single readings scatter. What follows is part of a selection rich in actives, with near analogues and random picks from the rest.
Response enum: active, inactive

Assay outcome for CCOc1ccc(C(=O)Nc2ccncc2)cc1 : what was it?
inactive

Fill in: this test's call for Cc1ccc(F)cc1NC(=O)c1ccc2c(c1)OCO2 is ___
inactive

Fill in: this test's call for COc1ccc(C(=O)Nc2ccc3c(c2)OCO3)cc1OC is ___
active

In the following, a different compound is considered.
What call does the record list for Cn1c(NC(=O)c2ccc3c(c2)OCO3)cc(=O)n(C)c1=O ?
inactive

###

Biological target: Luciferin 4-monooxygenase (Photinus pyralis) (UniProt P08659)
Test: qHTS Assay for Inhibitors of Firefly Luciferase; also: nearly all actives have a fitted effect of over 40% in size
Details: purified firefly luciferase, luminescence, 8 min; series mostly up to 57.1 µM
From the text: To aid in the interpretation of high-throughput screening (HTS) results derived from luciferase-based assays, we used quantitative HTS, an approach that defines the concentration-response behavior of each library sample, to profile the ATP-dependent luciferase from Photinus pyralis against more than 72 000 samples. […] Quantitative high-throughput screening: a titration-based approach that efficiently identifies biological activities in large chemical libraries. […]
Screen size: about 72,000 compounds; about 1,600 (2.2%) were called active. Calls follow the shape of the dose curve; as a rule, active = well fitted inhibition curve with a large enough effect; inconclusive = small, poorly fitted or top-dose-only effect; inactive = flat fitted curve, though single readings scatter. Only a selection was taken, and actives are over-represented in it overall.
Answer with one of the outcomes active, inactive

Recorded results for 3 molecules are shown here.
Record request — test call for COc1ccccc1Nc1ncc(C(C)=O)c(C)n1
inactive

Just curious, what result did O=C(Oc1ccccc1)c1ccc2nccnc2c1 get here?
inactive

Identify the outcome logged in this assay for the molecule shown: O=C(NCc1cn2ccsc2n1)Nc1ccc(Cl)cc1
inactive

Now, please, on to the next molecule.
Fill in: this test's call for C/C(=C\c1ccco1)C1Nc2cccc3cccc(c23)N1 is ___
inactive
